Data credit: PubChem BioAssay AID624268

# Tested on: methionyl-tRNA synthetase (Trypanosoma brucei brucei)
# assay_comment: T. brucei MetRS inhibitors, primary screen, biochemical, luminescence (AID 624268)
# assay_context: purified T. brucei MetRS, ATP depletion, Kinase-Glo luminescence; at 11.9 µM
Out of some 360,000 compounds screened, about 1,500 (0.42%) were called active.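 The calls were made as follows: active = inhibition above a per-plate cutoff of the control wells' mean inhibition plus 3 SD (cut at about 5.5% in these data); inactive = the rest.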 The full list was thinned out, with actives kept by preference.
Your answer must be one of the following: T (active), F (inactive)

[ask] Look up the recorded call for COCCn1c(SC(C)C(=O)NC2CC2)nnc1-c1cccc(C)c1 (stereo not drawn) in this test.
[reply] F

[ask] Look up the recorded call for CC(CCN1CCN=C1N(C)C)c1ccccc1 (stereo not drawn) in this test.
[reply] F

[ask] Look up the recorded call for "CCOC(=O)CN(C(=O)CN1CCOCC1)c1ccc(Br)cc1" in this test.
[reply] F

[ask] Look up the recorded call for "O=C(/C=C(O)/C=C/c1ccc(O)cc1)/C=C/c1ccc(O)cc1" in this test.
[reply] F

[ask] Look up the recorded call for "COCCNC(=O)CN1C(=O)CSc2ncccc21" in this test.
[reply] F

[ask] Look up the recorded call for "NC1=NC(=O)S/C1=C\c1ccc(O)cc1" in this test.
[reply] T

[ask] Look up the recorded call for "O=C(NNC(=O)c1ccc(Cl)cc1Cl)c1cccs1" in this test.
[reply] F
